# Target or system: KHS/MAP4K5 (Homo sapiens)
# Sequence (Q9Y4K4 whole entry): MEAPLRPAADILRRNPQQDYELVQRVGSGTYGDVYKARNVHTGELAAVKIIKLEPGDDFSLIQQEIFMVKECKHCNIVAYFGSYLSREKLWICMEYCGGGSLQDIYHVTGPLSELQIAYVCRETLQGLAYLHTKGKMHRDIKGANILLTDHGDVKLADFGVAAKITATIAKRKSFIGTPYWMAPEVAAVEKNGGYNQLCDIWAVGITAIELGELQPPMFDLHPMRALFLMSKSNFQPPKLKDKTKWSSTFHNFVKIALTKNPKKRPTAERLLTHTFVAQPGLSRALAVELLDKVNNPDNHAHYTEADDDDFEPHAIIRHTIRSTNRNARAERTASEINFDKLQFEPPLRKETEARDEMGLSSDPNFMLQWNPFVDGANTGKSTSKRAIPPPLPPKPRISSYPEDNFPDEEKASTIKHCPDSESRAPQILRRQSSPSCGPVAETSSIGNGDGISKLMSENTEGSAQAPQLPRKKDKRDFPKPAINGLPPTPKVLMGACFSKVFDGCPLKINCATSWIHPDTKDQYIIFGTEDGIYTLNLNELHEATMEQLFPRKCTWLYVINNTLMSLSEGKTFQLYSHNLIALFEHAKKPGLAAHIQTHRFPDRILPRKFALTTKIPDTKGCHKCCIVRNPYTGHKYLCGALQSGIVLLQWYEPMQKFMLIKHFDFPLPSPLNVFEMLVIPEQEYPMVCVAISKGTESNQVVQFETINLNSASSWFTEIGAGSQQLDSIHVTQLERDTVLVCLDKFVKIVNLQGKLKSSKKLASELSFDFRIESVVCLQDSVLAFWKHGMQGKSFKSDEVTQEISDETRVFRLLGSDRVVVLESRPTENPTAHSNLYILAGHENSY
# Method summary: HotSpot radiometric kinase assay (Reaction Biology), KHS/MAP4K5
# Test settings: 1.5 nM kinase, substrate MBP 20 μM, 33P-ATP, 120 minutes at room temperature
pIC50: −log10 of the molar value.
Quantity: pIC50

CN(C)S(=O)(=O)c1cccc(-c2coc3cc(-c4ccc(N5CCNCC5)cc4)cnc23)c1
6.05

P = Fc1cccc(-c2coc3cc(-c4ccc(N5CCNCC5)cc4)cnc23)c1
Q = CN1CCN(c2ccc(-c3cnc4c(-c5cccc(CO)c5)coc4c3)cc2)CC1
Query string: Return label of the item with the larger pIC50. Candidates: P , Q . The response must carry the label of the picked entry.
Result string: Q
(Q: 6.40, P: 6.05)

---

# Target or system: FLT3 (Homo sapiens, UniProt P36888)
Quantity: IC50 (nM)

CN1CCN(c2ccc(-c3cnc4c(-n5ccnc5)coc4c3)cc2)CC1 [Preparative Example 231]
101
CCOC(=O)Nc1cccc(-c2coc3cc(-c4ccc(N5CCN(C)CC5)cc4)cnc23)c1 [Preparative Example 83]
99
CN1CCN(c2ccc(Nc3ccc4occ(-c5ccccc5)c4n3)cc2)CC1 [compound 8C from WO 2015/165428, reference compound]
1030
Cc1nn(C)cc1-c1coc2cc(-c3ccc(N4CCN(C)CC4)cc3)cnc12 [Preparative Example 216]
224
CSc1cccc(-c2coc3cc(-c4ccc(N5CCN(C)CC5)cc4)cnc23)c1 [Preparative Example 147]
203

1 = Nc1ccc(-c2cnc3c(-c4ccncc4)coc3c2)cc1 [Preparative Example 47]
2 = Fc1ccc(-c2coc3cc(-c4ccc(N5CCNCC5)cc4)cnc23)cc1 [Preparative Example 51]
Query string: Please let me know which one, 1 or 2 , has a lower measured IC50 value. The response must carry the label of the picked entry.
Result string: 2

---

# Target or system: FLT3 (Homo sapiens, UniProt P36888)
# Sequence (P36888 27-993): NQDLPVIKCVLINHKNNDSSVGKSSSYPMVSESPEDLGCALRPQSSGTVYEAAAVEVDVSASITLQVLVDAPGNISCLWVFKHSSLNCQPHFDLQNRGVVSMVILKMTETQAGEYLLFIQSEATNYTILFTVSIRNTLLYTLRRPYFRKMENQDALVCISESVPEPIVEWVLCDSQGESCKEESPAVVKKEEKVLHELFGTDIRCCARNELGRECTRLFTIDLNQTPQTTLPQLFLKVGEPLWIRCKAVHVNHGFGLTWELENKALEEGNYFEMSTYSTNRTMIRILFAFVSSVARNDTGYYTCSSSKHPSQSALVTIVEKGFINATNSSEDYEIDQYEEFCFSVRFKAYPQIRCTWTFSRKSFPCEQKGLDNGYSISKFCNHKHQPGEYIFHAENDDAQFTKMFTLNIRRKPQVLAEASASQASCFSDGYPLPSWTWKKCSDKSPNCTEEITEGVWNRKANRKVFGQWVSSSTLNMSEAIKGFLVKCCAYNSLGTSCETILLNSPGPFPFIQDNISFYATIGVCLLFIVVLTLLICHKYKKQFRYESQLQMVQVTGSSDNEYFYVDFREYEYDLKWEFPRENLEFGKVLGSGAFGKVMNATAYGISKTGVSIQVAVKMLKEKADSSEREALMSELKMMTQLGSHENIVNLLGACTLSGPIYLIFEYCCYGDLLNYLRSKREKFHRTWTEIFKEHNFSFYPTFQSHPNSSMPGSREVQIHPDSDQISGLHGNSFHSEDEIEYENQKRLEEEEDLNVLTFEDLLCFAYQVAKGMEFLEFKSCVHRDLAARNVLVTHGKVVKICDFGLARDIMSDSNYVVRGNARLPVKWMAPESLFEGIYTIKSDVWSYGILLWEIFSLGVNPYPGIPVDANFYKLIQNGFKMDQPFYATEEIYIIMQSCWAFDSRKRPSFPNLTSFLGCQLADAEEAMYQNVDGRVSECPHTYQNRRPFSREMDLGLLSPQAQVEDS
pIC50: −log10 of the molar value.
Quantity: pIC50

Please review the entries below; each comes with its answer.
CN1CCN(c2ccc(-c3cnc4c(-c5ccccc5)c(-c5ccncc5)oc4c3)cc2)CC1
6.57
COc1ccccc1-c1coc2cc(-c3ccc(N4CCNCC4)cc3)cnc12
6.65
COCc1cccc(-c2coc3cc(-c4ccc(N5CCNCC5)cc4)cnc23)c1
7.27
c1ccc(-c2coc3ccc(Nc4ccncc4)nc23)cc1 [compound 8D from WO 2015/165428, reference compound]
5.91
N#Cc1cccc(-c2coc3cc(-c4ccc(N5CCNCC5)cc4)cnc23)c1
7.05

P = O=S(=O)(NCc1ccccc1)c1cccc(-c2coc3cc(-c4ccc(N5CCNCC5)cc4)cnc23)c1
Q = CC(=O)c1cc(-c2coc3cc(-c4ccc(N5CCN(C)CC5)cc4)cnc23)ccn1
R = CN(C)c1cccc(-c2coc3cc(-c4ccc(N5CCNCC5)cc4)cnc23)c1
S = CN1CCN(c2ccc(-c3cnc4c(-c5cc(C(N)=O)ccc5F)coc4c3)cc2)CC1
Query string: // ascending sort on recorded pIC50 Thanks in advance for listing the labels in the requested order.
Result string: R, P, Q, S
(R: 6.46, P: 6.86, Q: 7.34, S: 7.68)

A = c1cc(-c2coc3cc(-c4ccc(N5CCNCC5)cc4)cnc23)co1
B = Cc1ccc(-c2coc3cc(-c4ccc(N5CCNCC5)cc4)cnc23)cc1
C = COc1cccc(-c2coc3cc(-c4ccc(N5CCNCC5)cc4)cnc23)c1
Query string: Given 3 molecules, produce a descending ranking by pIC50. Thanks in advance for listing the labels in the requested order.
Result string: A, C, B
